Measured values drawn from patent US6124291A for this set.

endpoint.name: IC50
A bare number is not enough; add the unit after it.

Query string: Output reported IC50 of the molecule N=C(N)NCCC[C@H](NC(=O)[C@@H]1CC[C@H]2C(=O)N(CCCc3ccccc3)CC(=O)N12)C(=O)c1nccs1 [Example 11] on Factor Xa (Homo sapiens, UniProt P00742).
Sequence (P00742 235-488 limits assumed): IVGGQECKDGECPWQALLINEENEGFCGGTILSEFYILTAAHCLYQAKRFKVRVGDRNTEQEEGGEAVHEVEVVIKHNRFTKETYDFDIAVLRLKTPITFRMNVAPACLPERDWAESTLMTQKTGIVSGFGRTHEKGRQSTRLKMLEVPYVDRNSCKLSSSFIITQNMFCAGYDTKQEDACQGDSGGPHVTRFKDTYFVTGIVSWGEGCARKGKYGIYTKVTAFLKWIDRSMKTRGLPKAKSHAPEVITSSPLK
Sequence (P00742 41-179 limits assumed): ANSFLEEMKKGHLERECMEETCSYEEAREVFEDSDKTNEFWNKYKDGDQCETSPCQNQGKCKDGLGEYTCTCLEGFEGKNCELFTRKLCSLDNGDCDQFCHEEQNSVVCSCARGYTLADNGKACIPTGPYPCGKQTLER
Result string: 30 nM
